TEST SYSTEM: HLA-DRB4*0101 (human)
ASSAY METHOD TEXT: competition binding
REPORTED CONDITIONS: modification not given
pIC50: −log10 of the molar value.
PROPERTY LABEL: pIC50

Some entries whose results are on file:
BINDER: KDYIALKEDLRSWTA [p25]
pIC50: 4.56
--
BINDER: RAYLEGTCVEWLRRY [p33]
pIC50: 4.90
--
BINDER: HRVDLGTLRGYYNQS [p13*]
pIC50: 4.17
--
BINDER: KPLTLRWEPSSQPTI [p50*]
pIC50: 5.34
--
BINDER: VGYVDDTQFVRFDSD [p6]
pIC50: 5.05

A: EGLPKPLTLRWEPSS [p49]
B: RCWALSFYPAEITLT [p40]
Query string: Return label of the item with the larger pIC50. Candidates: A , B . I would appreciate it if you answered with the label of your choice.
Result string: B
(B: 5.35, A: 4.47)
